Each recorded value in this set is attributed to the RepoRT retention time repository.

- PROTOCOL_TEXT: RP, Waters ACQUITY Premier BEH C18, 100 × 2.1 mm, 1.7 µm, 40 °C, 0.3 to 0.4 mL/min, estimated dead time 0.73 min; A: water + 0.1% formic acid; B: acetonitrile + 0.1% formic acid; gradient (min/%B) 0/0.5 0.1/0.5 10/80 10.1/99.5 12/0.5 12.1/0.5 14.5/0.5
- CONDITION_PARAMETERS: stereoisomer not certain
ASSAY_READOUT: LC retention time (min)

Example compounds with recorded LC retention time:
# COMPOUND, LC retention time (min)
data = [
    ("O=C(O)Cc1c[nH]c2ccc(O)cc12 [5-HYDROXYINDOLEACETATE]", 4.41),
    ("O=C(OC1Cc2c(O)cc(O)cc2OC1c1cc(O)c(O)c(O)c1)c1cc(O)c(O)c(O)c1 (single isomer, unassigned; (-)) [(-)-EPIGALLOCATECHIN-3-GALLATE]", 3.98),
    ("CC(=O)N1CCCC1C(=O)O (centres undefined)", 3.77),
]

[I] NC(=O)c1ncn(C2OC(COP(=O)(O)O)C(O)C2O)c1N (centres undefined)
[II] CC(C)CC(=O)OC(CC(=O)[O-])C[N+](C)(C)C (centres undefined)
[III] CC(CCC(=O)O)C1CCC2C3CCC4CC(O)CCC4(C)C3CCC12C (centres undefined) [LITHOCHOLATE]
[IV] CCC(O)C(=O)O (centres undefined) [2-HYDROXYBUTYRATE]
Q. Ascending sort, LC retention time. Output spec: labels arranged per the requested ranking.
A. I, IV, II, III
(I: 1.28 min, IV: 2.82 min, II: 4.39 min, III: 8.27 min)

----------
- PROTOCOL_TEXT: RP, Waters ACQUITY Premier BEH C18, 100 × 2.1 mm, 1.7 µm, 40 °C, 0.3 to 0.4 mL/min, estimated dead time 0.73 min; A: water + 0.1% formic acid; B: acetonitrile + 0.1% formic acid; gradient (min/%B) 0/0.5 0.1/0.5 10/80 10.1/99.5 12/0.5 12.1/0.5 14.5/0.5
- CONDITION_PARAMETERS: stereoisomer not certain
ASSAY_READOUT: LC retention time (min)

Example compounds with recorded LC retention time:
# COMPOUND, LC retention time [min]
data = [
    ("COc1cc(CC(COC2OC(CO)C(O)C(O)C2O)C(COC2OC(CO)C(O)C(O)C2O)Cc2ccc(O)c(OC)c2)ccc1O (centres undefined) [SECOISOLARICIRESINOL DIGLUCOSIDE]", 4.58),
    ("Nc1c(O)cccc1C(=O)O [3-HYDROXYANTHRANILATE]", 3.85),
]

[1] O=c1cc(-c2ccc(O)c(O)c2)oc2c(C3OC(CO)C(O)C(O)C3O)c(O)cc(O)c12 (centres undefined)
[2] O=c1[nH]cnc2nc[nH]c12
Q. Kindly compare 1 with 2 and tell me which has the lower LC retention time figure. In your reply, give the label of the chosen option.
A. 2
(2: 1.76 min, 1: 5.18 min)

[I] N[C@@H](Cc1ccc(O)c([N+](=O)[O-])c1)C(=O)O
[II] O=C(O)c1cc(O)c2c(c1)C(=O)c1cccc(O)c1C2=O
Q. Kindly compare I with II and tell me which has the lower LC retention time figure. In your reply, give the label of the chosen option.
A. I

[1] O=C(O)C[C@H]1CC[C@@H](O)CC1 [CIS-4-HYDROXYCYCLOHEXYLACETIC ACID]
[2] O=c1ccn(C2OC(COP(=O)(O)O)C(O)C2O)c(=O)[nH]1 (centres undefined) [URIDINE MONOPHOSPHATE]
Q. Between 1 and 2 , whose recorded LC retention time is greater? In your reply, give the label of the chosen option.
A. 1

[A] COc1cc(C(=O)O)cc(OC)c1O
[B] CN(CC(=O)O)C(=N)N
Q. Between A and B , whose recorded LC retention time is greater? In your reply, give the label of the chosen option.
A. A
(A: 3.98 min, B: 0.905 min)

----------
- PROTOCOL_TEXT: RP, Waters ACQUITY Premier BEH C18, 100 × 2.1 mm, 1.7 µm, 40 °C, 0.3 to 0.4 mL/min, estimated dead time 0.73 min; A: water + 0.1% formic acid; B: acetonitrile + 0.1% formic acid; gradient (min/%B) 0/0.5 0.1/0.5 10/80 10.1/99.5 12/0.5 12.1/0.5 14.5/0.5
- CONDITION_PARAMETERS: stereoisomer not certain
ASSAY_READOUT: LC retention time (min)

Example molecules with recorded LC retention time:
# MOLECULE, LC retention time / min
records = [
    ("Cc1ncc(CO)c(CO)c1O", 2.1),
    ("CCCCCCCC(=O)OC(CC(=O)[O-])C[N+](C)(C)C (stereo not drawn)", 5.76),
]

[P] O=c1c(OC2OC(CO)C(O)C(O)C2O)c(-c2ccc(O)c(O)c2)oc2cc(O)cc(O)c12 (stereo not drawn) [QUERCETIN 3-GALACTOSIDE]
[Q] Nc1ncnc2c1ncn2C1OC(COP(=O)(O)O)C(O)C1O (stereo not drawn) [ADENOSINE-MONOPHOSPHATE]
Q. Kindly compare P with Q and tell me which has the lower LC retention time figure. In your reply, give the label of the chosen option.
A. Q
(Q: 1.35 min, P: 4.41 min)

[a] COc1ccc(C2CC(=O)c3c(O)cc(OC4OC(CO)C(O)C(O)C4OC4OC(C)C(O)C(O)C4O)cc3O2)cc1O (stereo not drawn) [HESPERETIN 7-NEOHESPERIDOSIDE]
[b] C=CCSCC(N)C(=O)O (stereo not drawn)
Q. Kindly compare a with b and tell me which has the lower LC retention time figure. In your reply, give the label of the chosen option.
A. b

[A] O=C(OCC1=CC(O)C2C=COC(OC3OC(CO)C(O)C(O)C3O)C12)c1ccc(O)cc1 (stereo not drawn) [AGNUSIDE]
[B] C=C1CC2(O)OC3(CC2C(C)C)C(C)CCC13 (stereo not drawn)
[C] O=C(O)CCC(=O)O [SUCCINATE]
[D] CC(=O)NCCC(=O)O
Q. Ascending sort, LC retention time. Output spec: labels arranged per the requested ranking.
A. D, C, A, B
(D: 1.03 min, C: 1.76 min, A: 4.2 min, B: 7.93 min)

----------
- PROTOCOL_TEXT: RP, Waters ACQUITY Premier BEH C18, 100 × 2.1 mm, 1.7 µm, 40 °C, 0.3 to 0.4 mL/min, estimated dead time 0.73 min; A: water + 0.1% formic acid; B: acetonitrile + 0.1% formic acid; gradient (min/%B) 0/0.5 0.1/0.5 10/80 10.1/99.5 12/0.5 12.1/0.5 14.5/0.5
- CONDITION_PARAMETERS: stereoisomer not certain
ASSAY_READOUT: LC retention time (min)

# COMPOUND, LC retention time, min
rows = [
    ("CC1=C(O)C(=O)C=C2C1=CC=C1C2(C)CCC2(C)C3CC(C)(C(=O)O)CCC3(C)CCC12C (stereo not given)", 8.6),
    ("CC(=O)NCCCCN", 0.96),
]

[I] O=c1cc(CO)occ1O
[II] O=c1[nH]c(=O)c2nccnc2[nH]1 [2,4-DIHYDROXYPTERIDINE]
[III] CC(=O)OC1CC2CCC1(C)C2(C)C (single isomer, unassigned; (-)) [(-)-BORNYL ACETATE]
Q. Ascending sort, LC retention time. Output spec: labels arranged per the requested ranking.
A. I, II, III
(I: 1.17 min, II: 3.08 min, III: 7.47 min)

----------
- PROTOCOL_TEXT: RP, Waters ACQUITY Premier BEH C18, 100 × 2.1 mm, 1.7 µm, 40 °C, 0.3 to 0.4 mL/min, estimated dead time 0.73 min; A: water + 0.1% formic acid; B: acetonitrile + 0.1% formic acid; gradient (min/%B) 0/0.5 0.1/0.5 10/80 10.1/99.5 12/0.5 12.1/0.5 14.5/0.5
- CONDITION_PARAMETERS: stereoisomer not certain
ASSAY_READOUT: LC retention time (min)

# COMPOUND, LC retention time, min
rows = [
    ("COc1ccc(O)c(C(=O)O)c1 [5-METHOXYSALICYLIC ACID]", 5.46),
]

[I] O=C(O)c1c[nH]c(=O)[nH]c1=O [URACIL 5-CARBOXYLATE]
[II] COC(=O)CCCC(=O)O [MONOMETHYLGLUTARATE]
[III] O=C(O)CCCCCCCCCC(=O)O [UNDECANEDIOIC ACID]
Q. Output the entries ranked by LC retention time from maximum down to minimum. Output spec: labels arranged per the requested ranking.
A. III, II, I

----------
- PROTOCOL_TEXT: RP, Waters ACQUITY Premier BEH C18, 100 × 2.1 mm, 1.7 µm, 40 °C, 0.3 to 0.4 mL/min, estimated dead time 0.73 min; A: water + 0.1% formic acid; B: acetonitrile + 0.1% formic acid; gradient (min/%B) 0/0.5 0.1/0.5 10/80 10.1/99.5 12/0.5 12.1/0.5 14.5/0.5
- CONDITION_PARAMETERS: stereoisomer not certain
ASSAY_READOUT: LC retention time (min)

Example molecules with recorded LC retention time:
# MOLECULE, ASSAY_READOUT, UNIT_OF_MEASURE, VALUE_OBSERVED
measured = [
    ("O=C(O)c1cccnc1 [NICOTINATE]", "LC retention time", "min", 1.42),
    ("O=C(O)C(O)c1ccc(O)cc1 (stereo unspecified) [P-HYDROXYMANDELIC ACID]", "LC retention time", "min", 2.48),
    ("O=c1c(-c2ccc(O)cc2)coc2cc(O)ccc12", "LC retention time", "min", 5.4),
]

[I] CC1OC(Oc2c(-c3ccc(O)c(O)c3)oc3cc(O)cc(O)c3c2=O)C(O)C(O)C1O (stereo unspecified)
[II] CC(=O)NC(CC(N)=O)C(=O)O (stereo unspecified)
[III] O=c1[nH]c(=O)c2[nH]cnc2[nH]1
Q. Output the entries ranked by LC retention time from maximum down to minimum. Output spec: labels arranged per the requested ranking.
A. I, III, II
